Data origin, for the record: paper PMC7156458

Can you tell me Th-T fluorescence of Aβ42 (sheet Fig. 7a), mean of three wells for the items I'm about to list?
- MEASURED ON: Aβ42 (Homo sapiens, UniProt P05067)
- Sequence (P05067 672-713): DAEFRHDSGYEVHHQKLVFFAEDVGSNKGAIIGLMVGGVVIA
- ASSAY REMARKS: Th-T (thioflavin-T) assay of Aβ42 aggregation
- Format: biochemical
- DETAILS: head suffix _10 (concentration 10); reading M80
Returns: the value as a bare number; no unit string appended.

Asked: State, in one line, measured Th-T fluorescence of Aβ42 (sheet Fig. 7a), mean of three wells of C=C1CCC2C(C)(CCC=C(C)C)C(O)CCC2(C)C1Cc1c(OC)oc(CO)c(C)c1=O (centres unmarked)
Given back: 3.214

Asked: State, in one line, measured Th-T fluorescence of Aβ42 (sheet Fig. 7a), mean of three wells of C=C1CC[C@@H]2[C@](C)(CC[C@H]3O[C@H](C=C(C)C)C[C@@]23C)[C@@H]1Cc1c(OC)oc(CO)c(C(=O)OC)c1=O
Given back: 1.155

Asked: State, in one line, measured Th-T fluorescence of Aβ42 (sheet Fig. 7a), mean of three wells of C=C1CCC2C(C)(CCC=C(C)C)C(O)CCC2(C)C1Cc1c(OC)oc(CO)c(C(=O)OC)c1=O (centres unmarked)
Given back: 1.555

Asked: State, in one line, measured Th-T fluorescence of Aβ42 (sheet Fig. 7a), mean of three wells of C=C1CCC2C(C)(CCC=C(C)C)C(O)CCC2(C)C1Cc1c(OC)oc(C)c(C(=O)OC)c1=O (centres unmarked)
Given back: 2.789

Asked: State, in one line, measured Th-T fluorescence of Aβ42 (sheet Fig. 7a), mean of three wells of C=C1CC[C@@H]2[C@](C)(CC[C@H]3O[C@H](C=C(C)C)C[C@@]23C)[C@@H]1Cc1c(OC)oc(CO)c(C)c1=O
Given back: 3.379

====

- MEASURED ON: UniProtKB P05067
- ASSAY REMARKS: Th-T (thioflavin-T) assay of Aβ42 aggregation
- Assay type: biochemical
- DETAILS: column suffix _10; reading M93
Rule: 1 for Fig. 7a Th-T reading, mean of three wells not less than 3, -1 for anything less.

Asked: Given the entry C=C1CCC2C(C)(CCC=C(C)C)C(O)CCC2(C)C1Cc1c(OC)oc(CO)c(C(=O)OC)c1=O (centres unmarked) , answer whether its Fig. 7a Th-T reading, mean of three wells meets or surpasses 3.
Given back: -1

Asked: Given the entry C=C1CC[C@@H]2[C@](C)(CC[C@H]3O[C@H](C=C(C)C)C[C@@]23C)[C@@H]1Cc1c(OC)oc(CO)c(C(=O)OC)c1=O , answer whether its Fig. 7a Th-T reading, mean of three wells meets or surpasses 3.
Given back: -1

Asked: Given the entry C=C1CC[C@@H]2[C@](C)(CC[C@H]3O[C@H](C=C(C)C)C[C@@]23C)[C@@H]1Cc1c(OC)oc(CO)c(C)c1=O , answer whether its Fig. 7a Th-T reading, mean of three wells meets or surpasses 3.
Given back: 1

Asked: Given the entry C=C1CCC2C(C)(CCC=C(C)C)C(O)CCC2(C)C1Cc1c(OC)oc(C)c(C(=O)OC)c1=O (centres unmarked) , answer whether its Fig. 7a Th-T reading, mean of three wells meets or surpasses 3.
Given back: -1

====

- MEASURED ON: Aβ42 (Homo sapiens, UniProt P05067)
- ASSAY REMARKS: Th-T (thioflavin-T) assay of Aβ42 aggregation
- Assay type: biochemical
- DETAILS: compound at 50; reading M59 of time course
Can you tell me Th-T fluorescence, mean of three wells for the items I'm about to list?
Returns: the value as a bare number; no unit string appended.

Asked: Print Aβ42 (Homo sapiens, UniProt P05067) Th-T fluorescence, mean of three wells for C=C1CC[C@@H]2[C@](C)(CC[C@H]3O[C@H](C=C(C)C)C[C@@]23C)[C@@H]1Cc1c(OC)oc(CO)c(C)c1=O [Compound 20] .
Given back: 2.0923

Asked: Print Aβ42 (Homo sapiens, UniProt P05067) Th-T fluorescence, mean of three wells for C=C1CCC2C(C)(CCC=C(C)C)C(O)CCC2(C)C1Cc1c(OC)oc(CO)c(C)c1=O (centres unmarked) [Compound 12] .
Given back: 1.454

Asked: Print Aβ42 (Homo sapiens, UniProt P05067) Th-T fluorescence, mean of three wells for C=C1CCC2C(C)(CCC=C(C)C)C(O)CCC2(C)C1Cc1c(OC)oc(CO)c(C(=O)OC)c1=O (centres unmarked) [Compound 13] .
Given back: 0.4665

Asked: Print Aβ42 (Homo sapiens, UniProt P05067) Th-T fluorescence, mean of three wells for C=C1CCC2C(C)(CCC=C(C)C)C(O)CCC2(C)C1Cc1c(OC)oc(C)c(C(=O)OC)c1=O (centres unmarked) [Compound 14] .
Given back: 4.296

Asked: Print Aβ42 (Homo sapiens, UniProt P05067) Th-T fluorescence, mean of three wells for C=C1CC[C@@H]2[C@](C)(CC[C@H]3O[C@H](C=C(C)C)C[C@@]23C)[C@@H]1Cc1c(OC)oc(CO)c(C(=O)OC)c1=O [Compound 21] .
Given back: 0.2206

====

- MEASURED ON: Aβ42 (Homo sapiens, UniProt P05067)
- ASSAY REMARKS: Th-T (thioflavin-T) assay of Aβ42 aggregation
- Type: biochemical
- DETAILS: time-course reading M105; Supplementary Fig. 47 source data
Binary call on Th-T fluorescence, mean of three wells with cut-off 3: strictly below means rule met, and equality or higher means rule not met.

Asked: I'd appreciate it if you could check whether C=C1CC[C@H]2[C@]3(C)C[C@@H](C=C(C)C)O[C@H]3CC[C@]2(C)[C@@H]1Cc1c(OC)oc(CO)c(C)c1=O has Th-T fluorescence, mean of three wells smaller than 3.
Given back: rule not met

Asked: I'd appreciate it if you could check whether C=C1CCC2C(C)(CCC=C(C)C)C(O)CCC2(C)C1Cc1c(OC)oc(C)c(C)c1=O (centres unmarked) [Compound 11] has Th-T fluorescence, mean of three wells smaller than 3.
Given back: rule not met

Asked: I'd appreciate it if you could check whether C=C1CCC2C(C)(CC(=O)C=C(C)C)C(O)CCC2(C)C1Cc1c(O)c(C)c(C)oc1=O (centres unmarked) has Th-T fluorescence, mean of three wells smaller than 3.
Given back: rule not met

Asked: I'd appreciate it if you could check whether C=C1CCC2C(C)(CCC=C(C)C)C(=O)CCC2(C)C1Cc1c(O)c(C)c(C)oc1=O (centres unmarked) has Th-T fluorescence, mean of three wells smaller than 3.
Given back: rule met

Asked: I'd appreciate it if you could check whether C=C1CCC2C(C)(CCC=C(C)C)C(O)CCC2(C)C1Cc1c(OC)oc(C)c(C)c1=O (centres unmarked) [Compound 15, viridoxin A hydrolysate] has Th-T fluorescence, mean of three wells smaller than 3.
Given back: rule not met

Asked: I'd appreciate it if you could check whether C=C1CC[C@H]2[C@]3(C)C[C@H](C=C(C)C)O[C@H]3CC[C@]2(C)[C@@H]1Cc1c(OC)oc(CO)c(C)c1=O has Th-T fluorescence, mean of three wells smaller than 3.
Given back: rule not met

Asked: I'd appreciate it if you could check whether C=C1CC[C@H]2[C@]3(C)C[C@H](C=C(C)C)O[C@H]3CC[C@]2(C)[C@@H]1Cc1c(O)c(C)c(C)oc1=O has Th-T fluorescence, mean of three wells smaller than 3.
Given back: rule not met

Asked: I'd appreciate it if you could check whether C=C1CCC2C(C)(CCC=C(C)C)C(O)CCC2(C)C1Cc1c(OC)oc(CO)c(C)c1=O (centres unmarked) has Th-T fluorescence, mean of three wells smaller than 3.
Given back: rule met

Asked: I'd appreciate it if you could check whether C=C1CCC2C3(C)CC(C=C(C)C)OC3CCC2(C)C1Cc1c(OC)oc(C)c(C)c1=O (centres unmarked) has Th-T fluorescence, mean of three wells smaller than 3.
Given back: rule not met

Asked: I'd appreciate it if you could check whether C=C1CCC2C(C)(CCC=C(C)C)C(O)CCC2(C)C1Cc1c(OC)oc(CO)c(C(=O)OC)c1=O (centres unmarked) has Th-T fluorescence, mean of three wells smaller than 3.
Given back: rule met

Asked: I'd appreciate it if you could check whether C=C1CCC2C(C)(CCC=C(C)C)C(O)CCC2(C)C1Cc1c(OC)oc(C)c(C(=O)OC)c1=O (centres unmarked) has Th-T fluorescence, mean of three wells smaller than 3.
Given back: rule met

Asked: I'd appreciate it if you could check whether C=C1CC[C@H]2[C@]3(C)C[C@H](C=C(C)C)O[C@H]3CC[C@]2(C)[C@@H]1Cc1c(OC)oc(C)c(C)c1=O has Th-T fluorescence, mean of three wells smaller than 3.
Given back: rule not met

Asked: I'd appreciate it if you could check whether C=C1CCC2C(C)(CC(=O)C=C(C)C)C(O)CCC2(C)C1Cc1c(OC)oc(CO)c(C)c1=O (centres unmarked) has Th-T fluorescence, mean of three wells smaller than 3.
Given back: rule not met

Asked: I'd appreciate it if you could check whether C=C1CC[C@@H]2[C@](C)(CC[C@H]3O[C@H](C=C(C)C)C[C@@]23C)[C@@H]1Cc1c(OC)oc(CO)c(C(=O)OC)c1=O has Th-T fluorescence, mean of three wells smaller than 3.
Given back: rule met
